Examples of variants with documented protein stability index follow.
B1: EPB41L3 (parent)
chain: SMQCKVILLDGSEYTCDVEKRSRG

Variants of: B1
testSummary: protein stability index of a GFP-peptide fusion (GPS, HEK-293T) (PSI 1-6); higher = more stable;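 note: lentivirally expressed fusions sorted by FACS into six bins by GFP to DsRed ratio, PSI derived from sequencing read proportions per bin multiplied by bin number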
particulars: c terminus: a fixed tail appended
Just the number, please, no unit attached.

Exam item: // returns reported protein stability index for input `E13M`
Marked response: 2.09
